Data provenance is patent US12441730B2.

Molecular target: Full-length (FL)-PRMT5-MEP50 enzyme complex (Homo sapiens)
Construct: Full-length (FL)-PRMT5-MEP50 enzyme complex (recombinant proteins from baculovirus-transfected Sf21 cells: FL-PRMT5; MW=73837 kDa and FL-MEP50; MW=38614); made in house; host or cells: baculovirus-transfected Sf21 cells
Sequence (O14744 whole entry): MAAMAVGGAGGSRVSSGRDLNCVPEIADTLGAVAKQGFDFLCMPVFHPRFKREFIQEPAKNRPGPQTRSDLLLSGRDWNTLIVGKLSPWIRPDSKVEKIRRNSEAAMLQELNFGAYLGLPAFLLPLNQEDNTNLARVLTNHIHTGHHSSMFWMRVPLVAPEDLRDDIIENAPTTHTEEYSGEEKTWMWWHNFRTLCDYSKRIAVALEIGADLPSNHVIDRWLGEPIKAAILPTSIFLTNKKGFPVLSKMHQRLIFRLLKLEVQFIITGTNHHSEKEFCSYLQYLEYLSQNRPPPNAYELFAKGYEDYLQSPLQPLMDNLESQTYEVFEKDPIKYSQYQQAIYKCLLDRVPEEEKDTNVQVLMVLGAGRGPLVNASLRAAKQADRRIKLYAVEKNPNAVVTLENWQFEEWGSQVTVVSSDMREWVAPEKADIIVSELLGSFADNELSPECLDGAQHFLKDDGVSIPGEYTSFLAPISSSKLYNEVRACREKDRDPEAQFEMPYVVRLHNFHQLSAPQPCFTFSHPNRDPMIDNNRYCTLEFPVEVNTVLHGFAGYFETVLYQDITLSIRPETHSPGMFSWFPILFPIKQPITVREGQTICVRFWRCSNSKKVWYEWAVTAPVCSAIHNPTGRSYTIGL
Sequence (Q9BQA1 whole entry partner): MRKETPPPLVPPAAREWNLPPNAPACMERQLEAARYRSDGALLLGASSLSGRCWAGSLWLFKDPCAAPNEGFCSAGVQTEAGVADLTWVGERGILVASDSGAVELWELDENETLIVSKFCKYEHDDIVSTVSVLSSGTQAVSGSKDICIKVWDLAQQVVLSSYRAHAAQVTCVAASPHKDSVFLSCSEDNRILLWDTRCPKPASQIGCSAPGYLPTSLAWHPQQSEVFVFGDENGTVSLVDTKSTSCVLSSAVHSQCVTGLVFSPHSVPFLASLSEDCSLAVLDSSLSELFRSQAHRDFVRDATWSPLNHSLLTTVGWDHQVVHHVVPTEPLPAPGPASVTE
Assay: PRMT5-MEP50 Enzyme Methylation Assay (Version A)
Type: biochemical
Conditions: second value of 7 parameter biphasic fit; read-out: Enzyme Methylation Assay Version A (EC50 2)
Method: PRMT5-MEP50 Enzyme Methylation Assay (Version A) PRMT5-MEP50 biochemical assay is a direct measurement of the methylation activity of the enzyme complex on a short peptide substrate derived from the N-terminus of H4 histone. Methylation experiment was performed with recombinant PRMT5-MEP50 protein complex. The assessment of inhibitory effect of small molecules was measured by the effectiveness of the compounds to inhibit this reaction (EC50). […]
REPORTED_PROPERTY: log10 of EC50 (log10 of the value in nM)
In plain terms, each number is the log10 of measured EC50 in nM.

As a guide, the following entries are already answered.
CCOc1nc(C)ccc1C(=O)N1CC[C@]2(Cc3ccccc3CN2)[C@H](O)C1 [Example 200]: 3.48
COC(C)c1cc(Br)c2nc(C(=O)N3CC[C@]4(Cc5ccccc5CN4)[C@H](O)C3)cn2c1 (single isomer, unassigned) [Example 60]: 2.43

Per the reported Full-length (FL)-PRMT5-MEP50 enzyme complex (Homo sapiens) data, CC1CC1c1cnc2nc(C(=O)N3CC[C@]4(Cc5ccccc5CN4)[C@H](O)C3)cn2c1 (single isomer, unassigned) [Example 76] has log10 of EC50 of 1.87

Per the reported Full-length (FL)-PRMT5-MEP50 enzyme complex (Homo sapiens) data, COc1nc2nc(C(=O)N3CC[C@]4(Cc5ccccc5CN4)[C@H](O)C3)cn2cc1Br (single isomer, unassigned) [Example 248] has log10 of EC50 of 2.18

Per the reported Full-length (FL)-PRMT5-MEP50 enzyme complex (Homo sapiens) data, CO[C@H](C)c1cccn2cc(C(=O)N3CC[C@]4(Cc5ccccc5CN4)[C@H](O)C3)nc12 [Example 237] has log10 of EC50 of 3.26

Per the reported Full-length (FL)-PRMT5-MEP50 enzyme complex (Homo sapiens) data, COC(C)c1cnc2nc(C(=O)N3CC[C@]4(Cc5ccccc5CN4)[C@H](O)C3)cn2c1 (single isomer, unassigned) [Example 137] has log10 of EC50 of 2.40

Per the reported Full-length (FL)-PRMT5-MEP50 enzyme complex (Homo sapiens) data, CC1(C)CC1(C#N)c1cnc2nc(C(=O)N3CC[C@]4(Cc5ccccc5CN4)[C@H](O)C3)cn2c1 (single isomer, unassigned) [Example 148] has log10 of EC50 of 3.28

* * *

molecular target: Full-length (FL)-PRMT5-MEP50 enzyme complex (Homo sapiens); construct: Full-length (FL)-PRMT5-MEP50 enzyme complex (recombinant proteins from baculovirus-transfected Sf21 cells: FL-PRMT5; MW=73837 kDa and FL-MEP50; MW=38614); made in house; host or cells: baculovirus-transfected Sf21 cells; assay: PRMT5-MEP50 Enzyme Methylation Assay (Version A); type: biochemical; conditions: second value of 7 parameter biphasic fit; read-out: Enzyme Methylation Assay Version A (EC50 2)
REPORTED_PROPERTY: EC50 (nM)
Record the value in nM, omitting the unit from your answer.

As a guide, the following entries are already answered.
O=C(c1ccn(CC(F)(F)F)c(=O)c1)N1CC[C@]2(Cc3ccccc3CN2)[C@H](O)C1: 16000
O=C(c1cn2cc(C(F)(F)F)cc(Cl)c2n1)N1CC[C@]2(Cc3ccccc3CN2)[C@H](O)C1: 71.6
Cc1ccc(C(=O)N2CC[C@]3(Cc4ccccc4CN3)[C@H](O)C2)c(-n2nccn2)n1: 501

Query `Cc1nc(C(F)(F)F)cn2cc(C(=O)N3CC[C@]4(Cc5ccccc5CN4)[C@H](O)C3)nc12` yields EC50 of 335

Query `O=C(c1cn2cc(Br)cc(C(F)(F)F)c2n1)N1CC[C@]2(Cc3ccccc3CN2)[C@H](O)C1` yields EC50 of 170

Query O=C(c1cn2c(n1)C(C1CCOC1)CC(C(F)(F)F)C2)N1CC[C@]2(Cc3ccccc3CN2)[C@H](O)C1 (single isomer, unassigned) [Example 163] yields EC50 of 36700

Query `Cc1cc(-c2onc(C)c2C(=O)N2CC[C@]3(Cc4ccccc4CN3)[C@H](O)C2)no1` yields EC50 of 7940
